# Target system: recombinant human AMPK complex 7 (containing α2β1γ1) (Homo sapiens (Human), UniProt P54646+Q9Y478)
# Sequence (P54646 whole entry): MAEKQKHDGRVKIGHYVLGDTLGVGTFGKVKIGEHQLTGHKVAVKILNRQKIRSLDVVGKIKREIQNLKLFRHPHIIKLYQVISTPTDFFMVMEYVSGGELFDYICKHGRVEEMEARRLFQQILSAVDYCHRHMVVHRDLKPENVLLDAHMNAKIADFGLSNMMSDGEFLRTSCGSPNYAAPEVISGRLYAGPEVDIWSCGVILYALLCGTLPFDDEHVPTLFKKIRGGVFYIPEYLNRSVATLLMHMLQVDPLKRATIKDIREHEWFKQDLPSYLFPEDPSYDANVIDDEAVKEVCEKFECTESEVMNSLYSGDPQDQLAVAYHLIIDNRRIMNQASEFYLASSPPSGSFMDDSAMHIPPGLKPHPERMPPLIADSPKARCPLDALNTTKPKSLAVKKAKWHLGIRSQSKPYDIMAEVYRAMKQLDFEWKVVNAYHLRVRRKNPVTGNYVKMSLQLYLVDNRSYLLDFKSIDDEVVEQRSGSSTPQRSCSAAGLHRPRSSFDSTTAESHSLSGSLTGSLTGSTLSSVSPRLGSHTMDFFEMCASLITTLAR
# Sequence (Q9Y478 whole entry): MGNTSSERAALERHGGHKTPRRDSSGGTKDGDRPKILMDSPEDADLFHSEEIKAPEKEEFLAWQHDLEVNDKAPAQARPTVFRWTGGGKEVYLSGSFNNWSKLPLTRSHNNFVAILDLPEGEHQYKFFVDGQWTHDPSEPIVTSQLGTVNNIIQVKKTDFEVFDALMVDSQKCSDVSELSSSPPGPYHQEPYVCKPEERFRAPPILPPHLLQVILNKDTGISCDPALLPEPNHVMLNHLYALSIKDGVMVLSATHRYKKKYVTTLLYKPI
# Sequence (P54619 whole entry partner): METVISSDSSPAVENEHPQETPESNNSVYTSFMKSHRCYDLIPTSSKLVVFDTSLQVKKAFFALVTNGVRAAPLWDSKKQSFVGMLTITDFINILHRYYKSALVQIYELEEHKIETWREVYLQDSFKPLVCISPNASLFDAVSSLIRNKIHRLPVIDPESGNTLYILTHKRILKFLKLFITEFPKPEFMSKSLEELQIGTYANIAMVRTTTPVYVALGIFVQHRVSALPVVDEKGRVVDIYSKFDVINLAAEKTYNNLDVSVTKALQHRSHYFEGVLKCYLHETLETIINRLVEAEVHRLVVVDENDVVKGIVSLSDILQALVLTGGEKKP
# Experiment description: in vitro AMPK activation assay (AMPKSAMSF), complex 7
# Stated conditions: inflection point reflecting 50% of the maximum activation; table head names AMPK complex 7
Below is a list of entries, each paired with its recorded EC50 value.
Measured parameter: EC50 (nM)

{"Compound": "O=C(O)CCCc1ccc(-c2ccc(-c3nc4nc(O[C@@H]5CO[C@H]6[C@@H]5OC[C@H]6O)[nH]c4cc3Cl)cc2)cc1 [Example 86]", "Measured parameter": "EC50", "Measured value": 4}
{"Compound": "N#Cc1ccc(-c2ccc(-c3nc4nc(O[C@@H]5CO[C@H]6[C@@H]5OC[C@H]6O)[nH]c4cc3Cl)cc2)c(F)c1 [Example 102]", "Measured parameter": "EC50", "Measured value": 5}
{"Compound": "O=c1[nH]ccn1-c1ccc(-c2ccc(-c3nc4nc(O[C@@H]5CO[C@H]6[C@@H]5OC[C@H]6O)[nH]c4cc3Cl)cc2)cc1 [Example 73]", "Measured parameter": "EC50", "Measured value": 4}
